For each of the compounds below, state its normalized growth.
# Test Details: chemical genetic growth profiling, strain panel (AID 1159580);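 further: tested at 20 µM; growth read once vehicle control cultures reached saturation at 30 °C; 1 = growth at the plate median or of vehicle wells; lower values mean less growth of the strain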
# Experimental Context: S. cerevisiae deletion strains, growth OD, locus YIL125W, strain kgd1, stronger effect = lower value
Hit rate of the full screen: of about 5,500 compounds, about 2,000 (36%) were called active. Inconclusive results (about 18%) are left out. The list shows a part of the results.
Numbers only.

Illustrative cases are given below, each with its answer.
>>> value_observed("Cc1cc(C(C)(C)C)c(O)c(C(C)(C)C)c1")
0.967
>>> value_observed("Nc1c2c(nc3ccccc13)CCCC2")
1.02

// each compound listed below needs its normalized growth
1. Nc1c2ccccc2nc2ccccc12 (tested in a mixture with another compound)
2. CC(C)(C#N)O[C@@H]1O[C@H](CO)[C@@H](O)[C@H](O)[C@H]1O

[A]
[0.9, 1]

###

# Test Details: chemical genetic growth profiling, strain panel (AID 1159580);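 further: tested at 20 µM; growth read once vehicle control cultures reached saturation at 30 °C; 1 = growth at the plate median or of vehicle wells; lower values mean less growth of the strain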
# Experimental Context: S. cerevisiae deletion strains, growth OD, locus YOR144C, strain elg1, stronger effect = lower value
Hit rate of the full screen: of about 5,500 compounds, about 2,000 (36%) were called active. Roughly 18% stayed inconclusive and do not appear here. This is one part of the list.
For each of the compounds below, state its normalized growth.

>>> value_observed("COc1cc(C(=O)O[C@H]2CC[C@@]3(C)[C@@H]4CC[C@H]5[C@]6(O)C[C@H](O)[C@@]7(O)[C@@H](CN8C[C@@H](C)CC[C@H]8[C@@]7(C)O)[C@]6(O)C[C@@]53O[C@]24O)cc(OC)c1OC")
"0.98 (inactive)"
>>> value_observed("NNc1nncc2ccccc12")
"1 (inactive)"
>>> value_observed("COc1ccc2c3c([nH]c2c1)C(C)=NCC3")
"0.983 (inactive)"
>>> value_observed("CCC(C)C(NC)C(=O)O (stereo not given)")
"0.993 (inactive)"
>>> value_observed("CC(=O)NC(C(=O)O)C(C)(C)SN=O (stereo not given)")
"0.989 (inactive)"
>>> value_observed("CC1(C)CC[C@]2(C)CC[C@]3(C)C(=CCC4[C@@]5(C)CC[C@H](O)C(C)(C)C5CC[C@]43C)C2C1 (stereo not given in full)")
"0.994 (inactive)"
>>> value_observed("C/C=C(/C)C(=O)OC1CCC2(C)C3CCC4C5(O)CC(O)C6(O)C(CN7CC(C)CCC7C6(C)O)C5(O)CC42OC13O (stereo not given)")
"0.963 (inactive)"
>>> value_observed("COc1cc(N)c(Cl)cc1C(=O)NC1CCN(Cc2ccccc2)CC1")
"0.982 (inactive)"

// each compound listed below needs its normalized growth
1. Cc1cc(O)ccc1Cl
2. O=c1oc2cc(O)ccc2s1

[A]
1. 1 (inactive)
2. 0.966 (inactive)

// each compound listed below needs its normalized growth
1. Nc1c2c(nc3ccccc13)CCCC2O (stereo not given)
2. CC(C)(Sc1cc(C(C)(C)C)c(O)c(C(C)(C)C)c1)Sc1cc(C(C)(C)C)c(O)c(C(C)(C)C)c1
3. CC(C)(C#N)O[C@@H]1O[C@H](CO)[C@@H](O)[C@H](O)[C@H]1O
4. C/C=C(/C)C(=O)O[C@H]1CC[C@@]2(C)[C@@H]3CC[C@H]4[C@]5(O)C[C@H](O)[C@@]6(O)[C@@H](CN7C[C@@H](C)CC[C@H]7[C@@]6(C)O)[C@]5(O)C[C@@]42O[C@]13O
5. CC(C)(Oc1ccc(CCNC(=O)c2ccc(Cl)cc2)cc1)C(=O)O

[A]
1. 0.999 (inactive)
2. 1.01 (inactive)
3. 0.997 (inactive)
4. 1.01 (inactive)
5. 1.02 (inactive)

// each compound listed below needs its normalized growth
1. Cc1cc(O)cc(C)c1Cl
2. O=C1C(O)=C(O)C(=O)C(O)=C1O

[A]
1: 1 (inactive); 2: 0.989 (inactive)

// each compound listed below needs its normalized growth
1. NC(N)=N/N=C/c1c(Cl)cccc1Cl
2. CC(C)=CCCC1(C)C=Cc2c(O)c3c(c(CC=C(C)C)c2O1)OC12C(=CC4CC1C(C)(C)OC2(C/C=C(/C)C(=O)O)C4O)C3=O (stereo not given)
3. Nc1c2ccccc2nc2ccccc12 (tested in a mixture with another compound)

[A]
["1.02 (inactive)", "0.966 (inactive)", "0.766 (active)"]
